METHOD SUMMARY: gradient 5% acetonitrile 3 min, to 50% in 2 min, to 85% in 15 min, held 3 min, 100 µL/min
CONDITION NOTES: column: Zorbax Extend-C18 2.1 x 50 mm; eluents: water / acetonitrile, 0.1% formic acid
Lab note: compare RP-LC retention time with 800 s, writing YES if less and NO if equal or more.

is_below(RP-LC retention time, 800 s) for COc1ccc(NC(=O)c2ccc(-n3cnc(NC(=O)C4CC4)c3)cc2)cc1OC ? YES

is_below(RP-LC retention time, 800 s) for CCOc1ccc2nc(NC(=O)C3CCN(S(=O)(=O)c4cn(C)c(C)n4)CC3)sc2c1 ? YES

is_below(RP-LC retention time, 800 s) for CCc1ccccc1NS(=O)(=O)c1cc(-c2nc(C(C)(C)C)cs2)cs1 ? NO

is_below(RP-LC retention time, 800 s) for COc1ccc(C(=O)Nc2ccc3c(c2)Sc2ncccc2C(=O)N3C(C)C)cc1 ? NO

is_below(RP-LC retention time, 800 s) for COc1ccc(NC(=O)Cn2cnc(-c3nc(C)cs3)c2)cc1Cl ? YES

is_below(RP-LC retention time, 800 s) for CCCCNC(=O)C1CCN(c2cc(N3CCSCC3)ncn2)CC1 ? YES

is_below(RP-LC retention time, 800 s) for CCCN(C(=O)CC)c1nc(-c2ccc(Br)cc2)cs1 ? NO

is_below(RP-LC retention time, 800 s) for Cn1cc(S(=O)(=O)N2CCC(C(=O)NC3CCCCCCC3)CC2)cc1C(=O)N1CCCC1 ? NO

is_below(RP-LC retention time, 800 s) for CCn1cc(CCN2CCN(C(=O)c3cccs3)CC2)c2cccnc21 ? YES

is_below(RP-LC retention time, 800 s) for CNC(=O)c1ccc(N2CCCN(Cc3ccccc3C)C2=O)cc1 ? YES

is_below(RP-LC retention time, 800 s) for Cc1ccc(-c2nc(-c3ccc4c(c3)ncn4CCN3CCOCC3)no2)c(C)c1 ? YES

is_below(RP-LC retention time, 800 s) for CCOc1cccc(-c2noc(Cn3ccn(-c4c(C)cccc4C)c(=O)c3=O)n2)c1 ? NO

is_below(RP-LC retention time, 800 s) for Cc1cccc(-n2c(=O)c3c(cc(C)n3C)n(CC(=O)Nc3cc(Cl)ccc3C)c2=O)c1 ? NO

is_below(RP-LC retention time, 800 s) for COC(=O)C(Cc1ccccc1)NC(=O)N1CCCn2nc(-c3ccncc3)cc2C1 (stereo not drawn) ? YES

is_below(RP-LC retention time, 800 s) for CCOc1ccc(N2CC(C#N)=C3c4cc(OC)c(OC)cc4CCN3C2)cc1 ? NO

is_below(RP-LC retention time, 800 s) for COc1ccc(CC(=O)N2C[C@@H]3C[C@H]2C[C@@H]3NC(=O)c2cccs2)cc1Cl ? YES

is_below(RP-LC retention time, 800 s) for COc1cc(NC(=O)NC(C)C)c2ncccc2c1 ? YES

is_below(RP-LC retention time, 800 s) for CC(C)Cn1nc2c(S(=O)(=O)N3CCOCC3)cccn2c1=O ? YES

is_below(RP-LC retention time, 800 s) for Cc1ccc(C)c(N(C)C(=O)C2CCCN(c3ncnc4c3nc3n4CCCCC3)C2)c1 (stereo not drawn) ? NO

is_below(RP-LC retention time, 800 s) for CCn1nccc1C(=O)N1CCCC1c1ccccc1Cl (stereo not drawn) ? NO

is_below(RP-LC retention time, 800 s) for Cc1nn(C(C)C(=O)Nc2ccc(Cl)cc2)c(=O)c2c(-n3cccc3)n(-c3ccccc3)nc12 (stereo not drawn) ? NO

is_below(RP-LC retention time, 800 s) for CC(=O)O[C@H]1C[C@@H]2OC3C=C(C)CCC3(C)[C@@]1(C)[C@@]21CO1 (stereo partly drawn) ? NO

is_below(RP-LC retention time, 800 s) for O=C(Nc1nc2c(s1)CCCC2C(=O)N1CCc2ccccc21)c1ccc2c(c1)OCO2 (stereo not drawn) ? NO

is_below(RP-LC retention time, 800 s) for COC(=O)c1ccccc1Nc1c(-c2ccc(SC)cc2)nc2cnccn12 ? NO

is_below(RP-LC retention time, 800 s) for CCOc1ccccc1C1NC(=O)N(CC(=O)NC2CCCC2)C2=C1C(=O)OC2 (stereo not drawn) ? YES

is_below(RP-LC retention time, 800 s) for CCn1c(=O)sc2cc(S(=O)(=O)N3CCC(C(=O)Nc4ccc(F)c(F)c4)CC3)ccc21 ? NO

is_below(RP-LC retention time, 800 s) for Cn1nc(CNC(=O)c2n[nH]c(=O)c3ccccc23)c2c1CCN(S(C)(=O)=O)C2 ? YES

is_below(RP-LC retention time, 800 s) for CCc1nc(N2CCCC2=O)sc1C(=O)NCc1ccccc1Cl ? NO

is_below(RP-LC retention time, 800 s) for CCN(C(=O)c1cccc(OC)c1)c1nc(-c2ccccc2)cs1 ? NO

is_below(RP-LC retention time, 800 s) for Cc1ccc(S(=O)(=O)N2C(=O)CCC2C(=O)Nc2ccc(C)c(F)c2)cc1C (stereo not drawn) ? NO

is_below(RP-LC retention time, 800 s) for Cc1cccc(C)c1NC(=O)Cn1ncc2c(c1=O)N(C1CC1)C(=O)CS2 ? YES

is_below(RP-LC retention time, 800 s) for O=C(NCc1ccc2c(c1)OCO2)C1CCCN(C(=O)c2cc(-c3ccccn3)n[nH]2)C1 (stereo not drawn) ? YES

is_below(RP-LC retention time, 800 s) for CCCNC(=O)C1CCN(c2ccc(SCC(=O)Nc3ccc(C(=O)OC)cc3)nn2)CC1 ? YES

is_below(RP-LC retention time, 800 s) for CN(C)S(=O)(=O)N(CC(=O)Nc1cc(C(F)(F)F)ccc1Cl)c1ccccc1 ? NO
